Test system: Human immunodeficiency virus 1
Assay: Antiviral activity against HIV-1 harboring RES056 mutant infected in human MT4 cells assessed as protection against virus-induced cytotoxicity incubated for 5 days by MTT assay
Type: functional, organism-based
Conditions: Human immunodeficiency virus 1, MT4, 120 h
endpointName: pEC50
Interpret pEC50 as the negative base-10 log of the concentration measured in mol/L.

Worked examples, 8 compounds total:
- compound: "Cc1cc(-c2cncnc2)cc(C)c1Nc1ccnc(Nc2ccc(C#N)cc2)n1"
  targetOrSystem: "Human immunodeficiency virus 1"
  pEC50: 6.23
- compound: "Cc1cc(-c2cc(C)c(Nc3ccnc(Nc4ccc(C#N)cc4)n3)c(C)c2)ccn1"
  targetOrSystem: "Human immunodeficiency virus 1"
  pEC50: 6.65
- compound: "Cc1cc(-c2cccs2)cc(C)c1Nc1ccnc(Nc2ccc(C#N)cc2)n1"
  targetOrSystem: "Human immunodeficiency virus 1"
  pEC50: 6.07
- compound: "Cc1cc(-c2cnc(C#N)nc2)cc(C)c1Nc1ccnc(Nc2ccc(C#N)cc2)n1"
  targetOrSystem: "Human immunodeficiency virus 1"
  pEC50: 7.36
- compound: "COc1ncc(-c2cc(C)c(Nc3ccnc(Nc4ccc(C#N)cc4)n3)c(C)c2)cn1"
  targetOrSystem: "Human immunodeficiency virus 1"
  pEC50: 6.69
- compound: "Cc1cc(-c2ccnc(F)c2)cc(C)c1Nc1ccnc(Nc2ccc(C#N)cc2)n1"
  targetOrSystem: "Human immunodeficiency virus 1"
  pEC50: 6.65
- compound: "Cc1cc(-c2cc(F)nc(F)c2)cc(C)c1Nc1ccnc(Nc2ccc(C#N)cc2)n1"
  targetOrSystem: "Human immunodeficiency virus 1"
  pEC50: 6.21
- compound: "Cc1cc(C#N)cc(C)c1Oc1nc(Nc2ccc(C#N)cc2)nc(N)c1Br [ETRAVIRINE]"
  targetOrSystem: "Human immunodeficiency virus 1"
  pEC50: 7.00

Next:
Ask: Entry `Cc1cc(-c2cnc(C(F)(F)F)nc2)cc(C)c1Nc1ccnc(Nc2ccc(C#N)cc2)n1` has what pEC50?
Result: 6.37

====

Assay: Selectivity index, ratio of CC50 for cytotoxicity against human MT4 cells to EC50 for antiviral activity against HIV-1 IIIB infected in human MT4 cells
Format: toxicity, cell-based
Conditions: read-out: Ratio CC50/EC50
Here, each record is paired with measured selectivity ratio data.
Keep it simple and answer with nothing but the number.

- structureSmiles: "Cc1cc(-c2cnc(C#N)nc2)cc(C)c1Nc1ccnc(Nc2ccc(C#N)cc2)n1"
  selectivity ratio: 1550
- structureSmiles: "Cc1cnc(Nc2ccc(C#N)cc2)nc1Nc1c(F)cc(-c2ccco2)cc1F"
  selectivity ratio: 1920
- structureSmiles: "Cc1cnc(Nc2ccc(C#N)cc2)nc1Nc1c(F)cc(-c2ccsc2)cc1F"
  selectivity ratio: 36700

Ask: What value of measured selectivity ratio is listed for `Cc1cc(-c2ccnc(F)c2)cc(C)c1Nc1ccnc(Nc2ccc(C#N)cc2)n1` ?
Result: 3720

Ask: Name the reported selectivity ratio value associated with the compound `Cc1cnc(Nc2ccc(C#N)cc2)nc1Nc1c(F)cc(-c2cncc(C#N)c2)cc1F`
Result: 2080

Ask: Could you share which selectivity ratio value was measured for `Cc1cc(-c2cc(F)nc(F)c2)cc(C)c1Nc1ccnc(Nc2ccc(C#N)cc2)n1` ?
Result: 1740

Ask: Quick one: selectivity ratio for `Cc1csc(-c2cc(C)c(Nc3ccnc(Nc4ccc(C#N)cc4)n3)c(C)c2)c1` ?
Result: 3060
